Protocol Summary: Pharmacokinetic profiles in rats
Type: in vivo, rat
Condition Context: iv dosing 1 mg/kg
Please respond with reported clearance for every item in the list.
Report the figure in mL/min/kg without appending any unit label.

Exercise: Form field: reported clearance of Cc1nnc(-c2c(N)ncnc2N[C@@H](C)c2nc3cccc(C#CC(C)O)c3c(=O)n2-c2ccccc2)o1 (some centres unmarked)
Solution: 19.3

Exercise: Now the same for Cc1noc(-c2c(N)ncnc2N[C@@H](C)c2nc3cccc(C#CCO)c3c(=O)n2-c2ccccc2)n1
Solution: 25

Exercise: Consider next the compound Cc1nnc(-c2c(N)ncnc2N[C@@H](C)c2nc3cccc(C#CC(C)(C)O)c3c(=O)n2-c2ccccc2)o1 in the same way.
Solution: 11.3

Exercise: Next up: Cc1noc(-c2c(N)ncnc2N[C@@H](C)c2nc3cccc(C#CC(C)(C)O)c3c(=O)n2-c2ccccc2)n1
Solution: 9.17

Exercise: Cc1nc(-c2c(N)ncnc2N[C@@H](C)c2nc3cccc(C#CCO)c3c(=O)n2-c2ccccc2)no1 , same question.
Solution: 21.3

* * *

Study Target: PI3K (p110α/p85α) (h) (Homo sapiens (Human), UniProt P42336)
Sequence (P42336 whole entry): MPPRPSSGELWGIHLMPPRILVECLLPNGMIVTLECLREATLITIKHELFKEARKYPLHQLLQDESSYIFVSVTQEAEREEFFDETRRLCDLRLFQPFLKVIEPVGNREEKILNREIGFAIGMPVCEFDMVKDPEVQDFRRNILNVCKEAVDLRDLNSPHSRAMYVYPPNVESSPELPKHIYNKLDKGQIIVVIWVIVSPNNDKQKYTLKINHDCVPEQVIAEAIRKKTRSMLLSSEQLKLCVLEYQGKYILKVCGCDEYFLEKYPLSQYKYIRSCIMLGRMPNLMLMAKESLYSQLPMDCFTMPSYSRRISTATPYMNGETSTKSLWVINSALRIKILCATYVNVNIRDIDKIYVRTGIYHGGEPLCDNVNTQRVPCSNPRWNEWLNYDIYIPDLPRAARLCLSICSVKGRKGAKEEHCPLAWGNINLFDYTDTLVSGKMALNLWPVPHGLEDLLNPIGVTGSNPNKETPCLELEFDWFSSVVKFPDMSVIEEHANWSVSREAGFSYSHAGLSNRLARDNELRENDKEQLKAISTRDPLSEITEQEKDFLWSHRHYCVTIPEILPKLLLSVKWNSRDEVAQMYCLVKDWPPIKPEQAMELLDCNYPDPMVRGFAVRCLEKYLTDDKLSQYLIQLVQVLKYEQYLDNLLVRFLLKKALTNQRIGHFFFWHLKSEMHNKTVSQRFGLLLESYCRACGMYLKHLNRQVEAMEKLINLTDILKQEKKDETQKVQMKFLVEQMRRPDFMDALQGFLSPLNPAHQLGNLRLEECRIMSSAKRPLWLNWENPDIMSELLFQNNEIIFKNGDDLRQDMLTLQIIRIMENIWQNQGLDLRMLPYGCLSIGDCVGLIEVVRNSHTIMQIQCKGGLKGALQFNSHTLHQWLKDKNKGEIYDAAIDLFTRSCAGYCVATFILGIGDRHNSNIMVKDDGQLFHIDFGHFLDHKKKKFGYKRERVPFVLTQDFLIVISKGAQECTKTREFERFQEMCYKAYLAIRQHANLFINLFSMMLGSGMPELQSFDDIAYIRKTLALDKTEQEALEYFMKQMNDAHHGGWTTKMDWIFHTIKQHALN
Sequence (P27986 whole entry partner): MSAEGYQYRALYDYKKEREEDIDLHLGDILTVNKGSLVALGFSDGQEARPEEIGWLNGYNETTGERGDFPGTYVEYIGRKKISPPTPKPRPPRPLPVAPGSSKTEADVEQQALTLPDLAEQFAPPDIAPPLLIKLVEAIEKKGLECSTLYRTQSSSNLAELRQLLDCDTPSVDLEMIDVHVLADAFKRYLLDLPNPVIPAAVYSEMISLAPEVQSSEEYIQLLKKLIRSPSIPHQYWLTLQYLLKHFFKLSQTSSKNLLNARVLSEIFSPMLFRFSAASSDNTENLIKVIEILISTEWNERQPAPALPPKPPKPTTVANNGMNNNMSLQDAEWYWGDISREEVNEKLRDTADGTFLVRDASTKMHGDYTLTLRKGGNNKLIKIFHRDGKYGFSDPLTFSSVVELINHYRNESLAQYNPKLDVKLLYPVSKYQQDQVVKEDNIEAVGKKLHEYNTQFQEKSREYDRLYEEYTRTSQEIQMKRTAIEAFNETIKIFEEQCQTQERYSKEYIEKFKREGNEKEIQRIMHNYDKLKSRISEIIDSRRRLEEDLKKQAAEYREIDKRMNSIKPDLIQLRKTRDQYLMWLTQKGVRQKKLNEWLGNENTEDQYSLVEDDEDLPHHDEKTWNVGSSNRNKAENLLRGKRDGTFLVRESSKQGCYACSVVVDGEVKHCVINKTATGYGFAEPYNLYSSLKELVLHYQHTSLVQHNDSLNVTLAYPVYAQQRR
Protocol Summary: PI3K (p110α/p85α) (h) non-radioactive HTRF kinase assay
Field: log10(IC50). Provide a value for each of the compounds that follow.
A value of 2 here means IC50 of 100 in nM, since values are log10.

Exercise: # get_value(readout= log10(IC50), system= PI3K (p110α/p85α) (h) (Homo sapiens (Human), UniProt P42336)) for CC[C@H](Nc1ncnc(N)c1-c1nc(C)no1)c1nc2cccc(C#CCO)c2c(=O)n1-c1ccccc1
Solution: 3.42

Exercise: Now give it for CC#Cc1cccc2nc([C@H](CC)Nc3ncnc(N)c3-c3nc(C)no3)n(-c3ccccc3)c(=O)c12 too.
Solution: 3.28

Exercise: Next record, please: CC#Cc1cccc2cc([C@H](C)Nc3ncnc(N)c3-c3nc(C)no3)n(-c3ccccc3)c(=O)c12
Solution: 2.08

Exercise: Please give the result for Cc1noc(-c2c(N)ncnc2N[C@@H](C)c2nc3cccc(C#CCO)c3c(=O)n2-c2ccccc2)n1 too.
Solution: 2.89

Exercise: Note, next up: CC#Cc1cccc2nc([C@H](C)Nc3ncnc(N)c3-c3nnc(C)o3)n(-c3ccccc3)c(=O)c12
Solution: 3.45

Exercise: Then this compound: Cc1noc(-c2c(N)ncnc2N[C@@H](C)c2cc3cccc(C#CCO)c3c(=O)n2-c2ccccc2)n1
Solution: 2.85

Exercise: Try this compound next: Cc1noc(-c2c(N)ncnc2N[C@@H](C)c2nc3cccc(C#CC(C)O)c3c(=O)n2-c2ccccc2)n1 (stereo partly shown)
Solution: 3.38

Exercise: Now try Cc1noc(-c2c(N)ncnc2N[C@@H](C)c2cc3cccc(C#CCO)c3c(=O)n2C2CC2)n1 .
Solution: 3.00

Exercise: Another compound: CC#Cc1cccc2nc([C@H](C)Nc3ncnc(N)c3-c3nc(C)no3)n(-c3ccccc3)c(=O)c12
Solution: 2.66

* * *

Protocol Summary: Compound stability in human liver microsomes
Type: in vitro ADME
Condition Context: pH 7.4; human liver microsomes 0.5 mg protein/mL, compound 5 μM, NADPH, 37° C.; read-out: Human T1/2
half-life at 5 μM under 1 h gets met, anything at or over 1 h gets not met.

Exercise: Please let me know if CC[C@H](Nc1ncnc(N)c1-c1nc(C)no1)c1nc2cccc(C#CCO)c2c(=O)n1C1CC1 [Example 29] shows half-life at 5 μM below 1 h.
Solution: met

Exercise: Try this compound too: C#Cc1cccc2nc([C@H](C)Nc3ncnc(N)c3-c3nnn(C)n3)n(-c3ccccc3)c(=O)c12 [Example 48]
Solution: met

Exercise: Request: C#Cc1cccc2nc([C@H](C)Nc3ncnc(N)c3-c3nc(C)no3)n(-c3ccccc3)c(=O)c12 [Example 44]
Solution: met

Exercise: // repeat for Cc1noc(-c2c(N)ncnc2N[C@@H](C)c2nc3cccc(C#CCO)c3c(=O)n2C2CC2)n1 [Example 30] and report
Solution: not met

Exercise: Next compound up: Cc1nc(-c2c(N)ncnc2N[C@@H](C)c2nc3cccc(C#CC(C)O)c3c(=O)n2-c2ccccc2)no1 (stereo partly shown) [Example 6]
Solution: not met

Exercise: Try the compound Cc1noc(-c2c(N)ncnc2N[C@@H](C)c2nc3cccc(C#CC(C)(C)O)c3c(=O)n2-c2ccccc2)n1 [Example 1]
Solution: not met

Exercise: Would you mind doing Cc1nnc(-c2c(N)ncnc2N[C@@H](C)c2nc3cccc(C#CC(C)O)c3c(=O)n2-c2ccccc2)o1 (stereo partly shown) [Example 7] as well?
Solution: not met

* * *

Study Target: UniProt Q12809
Sequence (Q12809 whole entry): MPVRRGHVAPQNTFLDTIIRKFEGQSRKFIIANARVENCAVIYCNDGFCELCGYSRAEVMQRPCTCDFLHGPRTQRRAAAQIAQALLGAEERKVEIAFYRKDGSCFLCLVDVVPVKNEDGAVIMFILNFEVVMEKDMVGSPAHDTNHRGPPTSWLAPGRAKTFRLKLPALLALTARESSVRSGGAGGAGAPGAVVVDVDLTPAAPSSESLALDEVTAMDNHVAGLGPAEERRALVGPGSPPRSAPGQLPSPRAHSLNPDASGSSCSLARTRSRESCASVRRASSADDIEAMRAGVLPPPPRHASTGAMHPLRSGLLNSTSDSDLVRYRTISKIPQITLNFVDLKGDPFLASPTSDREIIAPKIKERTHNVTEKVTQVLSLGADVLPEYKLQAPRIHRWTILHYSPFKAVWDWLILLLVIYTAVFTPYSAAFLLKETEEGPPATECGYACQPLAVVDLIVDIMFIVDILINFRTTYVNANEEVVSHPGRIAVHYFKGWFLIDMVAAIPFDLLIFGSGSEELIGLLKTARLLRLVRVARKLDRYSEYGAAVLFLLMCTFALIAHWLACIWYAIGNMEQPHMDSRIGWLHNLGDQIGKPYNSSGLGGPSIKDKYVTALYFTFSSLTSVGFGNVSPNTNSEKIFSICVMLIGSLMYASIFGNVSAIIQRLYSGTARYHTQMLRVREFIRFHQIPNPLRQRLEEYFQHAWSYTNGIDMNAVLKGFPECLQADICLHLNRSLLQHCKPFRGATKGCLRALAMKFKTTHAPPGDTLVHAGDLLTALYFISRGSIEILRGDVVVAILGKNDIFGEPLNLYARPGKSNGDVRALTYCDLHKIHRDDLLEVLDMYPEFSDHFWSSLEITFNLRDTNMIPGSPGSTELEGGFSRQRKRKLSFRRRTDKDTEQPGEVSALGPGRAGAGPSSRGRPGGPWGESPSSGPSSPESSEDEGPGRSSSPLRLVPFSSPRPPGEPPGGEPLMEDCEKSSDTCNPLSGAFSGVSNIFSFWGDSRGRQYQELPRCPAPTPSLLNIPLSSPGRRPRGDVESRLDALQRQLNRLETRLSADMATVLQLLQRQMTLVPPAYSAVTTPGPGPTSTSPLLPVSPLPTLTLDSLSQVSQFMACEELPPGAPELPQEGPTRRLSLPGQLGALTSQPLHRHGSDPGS
Protocol Summary: hERG assay, manual patch-clamp in HEK-293 cells
Format: cell-based
Endpoint Name: IC50 (µM)
Express it in µM; write the number only.

Exercise: Please provide the recorded IC50 for Cc1noc(-c2c(N)ncnc2N[C@@H](C)c2nc3cccc(C#CCO)c3c(=O)n2-c2ccccc2)n1 , tested on UniProt Q12809.
Solution: 15.3

* * *

Protocol Summary: Compound stability in human liver microsomes
Type: in vitro ADME
Condition Context: pH 7.4; human liver microsomes 0.5 mg protein/mL, compound 5 μM, NADPH, 37° C.; read-out: Human T1/2
Experimental: Human or rat liver microsomes incubations were conducted in duplicate in polypropylene tubes. […] The concentrations of compounds in the incubation mixtures of human or rat liver microsomes were determined by a LC/MS/MS method. The ranges of the linearity in the concentration range were determined for each tested compounds. […]
For each of the compounds below, state its half-life at 5 μM.
Report as a plain number; the unit min is understood.

Exercise: # half-life at 5 μM lookup, item Cc1noc(-c2c(N)ncnc2N[C@@H](C)c2nc3cccc(C#CC(C)O)c3c(=O)n2-c2ccccc2)n1 (stereo partly shown) [Example 5]
Solution: 83.7

Exercise: Could you do the same for CC#Cc1cccc2nc([C@H](C)Nc3ncnc(N)c3-c3nnc(C)o3)n(C3CC3)c(=O)c12 [Example 22] , please?
Solution: 27.8

Exercise: Next: C#Cc1cccc2nc([C@H](C)Nc3ncnc(N)c3-c3nnn(C)n3)n(C3CC3)c(=O)c12 [Example 52]
Solution: 19.4

Exercise: Now try CC#Cc1cccc2nc([C@H](C)Nc3ncnc(N)c3-c3nc(C)no3)n(-c3ccccc3)c(=O)c12 [Example 9] .
Solution: 21.6

Exercise: Same read-out for CC#Cc1cccc2nc([C@H](C)Nc3ncnc(N)c3-c3noc(C)n3)n(-c3ccccc3)c(=O)c12 [Example 11] ?
Solution: 27.6

Exercise: Would you mind doing CC(O)C#Cc1cccc2nc([C@H](C)Nc3ncnc(N)c3-c3nnn(C)n3)n(-c3ccccc3)c(=O)c12 (stereo partly shown) [Example 8] as well?
Solution: 111

Exercise: And what about the compound C#Cc1cccc2nc([C@H](C)Nc3ncnc(N)c3-c3nnc(C)o3)n(-c3ccccc3)c(=O)c12 [Example 45] ?
Solution: 5.77

* * *

Protocol Summary: Pharmacokinetic profiles in rats
Type: in vivo, rat
Condition Context: rat, plasma, iv dosing 1 mg/kg
Field: AUC(0-t). Provide a value for each of the molecules that follow.
Answer in ng·h/mL, number only, no unit symbol.

Exercise: Please look up its AUC(0-t): Cc1nc(-c2c(N)ncnc2N[C@@H](C)c2nc3cccc(C#CC(C)(C)O)c3c(=O)n2-c2ccccc2)no1
Solution: 1210

Exercise: Same read-out for C[C@H](Nc1ncnc(N)c1-c1nnn(C)n1)c1nc2cccc(C#CC(C)(C)O)c2c(=O)n1-c1ccccc1 ?
Solution: 1870

Exercise: Try Cc1nc(-c2c(N)ncnc2N[C@@H](C)c2nc3cccc(C#CCO)c3c(=O)n2-c2ccccc2)no1 next.
Solution: 790

Exercise: What do you have for Cc1noc(-c2c(N)ncnc2N[C@@H](C)c2nc3cccc(C#CC(C)(C)O)c3c(=O)n2-c2ccccc2)n1 ?
Solution: 1440

Exercise: Record: Cc1nnc(-c2c(N)ncnc2N[C@@H](C)c2nc3cccc(C#CC(C)O)c3c(=O)n2-c2ccccc2)o1 (stereo partly drawn)
Solution: 862

Exercise: One more molecule: Cc1nnc(-c2c(N)ncnc2N[C@@H](C)c2nc3cccc(C#CC(C)(C)O)c3c(=O)n2-c2ccccc2)o1
Solution: 1370

Exercise: Then what about the molecule CC#Cc1cccc2nc([C@H](C)Nc3ncnc(N)c3-c3nnc(C)o3)n(C3CC3)c(=O)c12 ?
Solution: 675

Exercise: Now try Cc1noc(-c2c(N)ncnc2N[C@@H](C)c2nc3cccc(C#CCO)c3c(=O)n2-c2ccccc2)n1 .
Solution: 671

Exercise: Check C#Cc1cccc2nc([C@H](C)Nc3ncnc(N)c3-c3nnn(C)n3)n(C3CC3)c(=O)c12 too.
Solution: 722

* * *

Protocol Summary: Compound stability in rat liver microsomes
Type: in vitro ADME
Condition Context: pH 7.4; rat liver microsomes 0.5 mg protein/mL, compound 5 μM, NADPH, 37° C.; read-out: Rat T1/2
Endpoint Name: log10(half-life at 5 μM) (log10 of the value in min)
Units before log transform: min; reported quantity: half-life at 5 μM; transform: log10.

Exercise: Fill blank: measured log10(half-life at 5 μM) of the compound CC#Cc1cccc2nc([C@H](C)Nc3ncnc(N)c3-c3noc(C)n3)n(-c3ccccc3)c(=O)c12 is ____.
Solution: 1.41

Exercise: Moving on to C#Cc1cccc2nc([C@H](C)Nc3ncnc(N)c3-c3ncn(C)n3)n(-c3ccccc3)c(=O)c12
Solution: 1.37

Exercise: Now the same for C[C@H](Nc1ncnc(N)c1-c1ncn(C)n1)c1nc2cccc(C#CCO)c2c(=O)n1-c1ccccc1
Solution: 1.61

Exercise: Also check Cc1noc(-c2c(N)ncnc2N[C@@H](C)c2nc3cccc(C#CCO)c3c(=O)n2-c2ccccc2)n1
Solution: 1.90

Exercise: CC#Cc1cccc2nc([C@H](C)Nc3ncnc(N)c3-c3nnn(C)n3)n(-c3ccccc3)c(=O)c12 ?
Solution: 1.54

Exercise: Next record, please: C#Cc1cccc2nc([C@H](C)Nc3ncnc(N)c3-c3nc(C)no3)n(-c3ccccc3)c(=O)c12
Solution: 1.17

Exercise: What do we get for C#Cc1cccc2nc([C@H](C)Nc3ncnc(N)c3-c3noc(C)n3)n(-c3ccccc3)c(=O)c12 ?
Solution: 1.25

Exercise: Another compound: Cc1nc(-c2c(N)ncnc2N[C@@H](C)c2nc3cccc(C#CCO)c3c(=O)n2-c2ccccc2)no1
Solution: 1.67

Exercise: Check Cc1noc(-c2c(N)ncnc2N[C@@H](C)c2nc3cccc(C#CC(C)(C)O)c3c(=O)n2-c2ccccc2)n1 too.
Solution: 2.99

Exercise: Similarly, C#Cc1cccc2nc([C@H](C)Nc3ncnc(N)c3-c3nnc(C)o3)n(C3CC3)c(=O)c12 ?
Solution: 1.85

Exercise: Also, Cc1noc(-c2c(N)ncnc2N[C@@H](C)c2nc3cccc(C#CCO)c3c(=O)n2C2CC2)n1 please.
Solution: 2.05

Exercise: Queued: CC#Cc1cccc2nc([C@H](CC)Nc3ncnc(N)c3-c3nnc(C)o3)n(C3CC3)c(=O)c12
Solution: 1.44

Exercise: Query Cc1noc(-c2c(N)ncnc2N[C@@H](C)c2nc3cccc(C#CC(C)O)c3c(=O)n2-c2ccccc2)n1 (stereo partly shown) next
Solution: 1.95

Exercise: How about CC[C@H](Nc1ncnc(N)c1-c1nc(C)no1)c1nc2cccc(C#CCO)c2c(=O)n1-c1ccccc1 ?
Solution: 1.26

Exercise: Try the compound CC(O)C#Cc1cccc2nc([C@H](C)Nc3ncnc(N)c3-c3nnn(C)n3)n(-c3ccccc3)c(=O)c12 (stereo partly shown)
Solution: 1.88

Exercise: Please give the result for Cc1nc(-c2c(N)ncnc2N[C@@H](C)c2nc3cccc(C#CC(C)O)c3c(=O)n2-c2ccccc2)no1 (stereo partly shown) too.
Solution: 1.78

Exercise: What about this compound? C[C@H](Nc1ncnc(N)c1-c1nnn(C)n1)c1nc2cccc(C#CCO)c2c(=O)n1-c1ccccc1
Solution: 1.76

Exercise: C#Cc1cccc2nc([C@H](C)Nc3ncnc(N)c3-c3noc(C)n3)n(C3CC3)c(=O)c12 , same question.
Solution: 1.27

Exercise: Lookup CC#Cc1cccc2nc([C@H](C)Nc3ncnc(N)c3-c3nc(C)no3)n(-c3ccccc3)c(=O)c12
Solution: 1.47

Exercise: Now the compound CC[C@H](Nc1ncnc(N)c1-c1nc(C)no1)c1nc2cccc(C#CCO)c2c(=O)n1C1CC1
Solution: 1.45

Exercise: Repeat for the following compound: C[C@H](Nc1ncnc(N)c1-c1nnn(C)n1)c1nc2cccc(C#CC(C)(C)O)c2c(=O)n1-c1ccccc1
Solution: 2.65

Exercise: Also CC#Cc1cccc2nc([C@H](CC)Nc3ncnc(N)c3-c3nc(C)no3)n(-c3ccccc3)c(=O)c12 ?
Solution: 1.07

Exercise: // next record C#Cc1cccc2nc([C@H](C)Nc3ncnc(N)c3-c3nnn(C)n3)n(C3CC3)c(=O)c12
Solution: 1.49

Exercise: Same for C#Cc1cccc2nc([C@H](C)Nc3ncnc(N)c3-c3nnn(C)n3)n(-c3ccccc3)c(=O)c12
Solution: 1.16

Exercise: Param item: C#Cc1cccc2nc([C@H](C)Nc3ncnc(N)c3-c3nnc(C)o3)n(-c3ccccc3)c(=O)c12
Solution: 1.45

Exercise: Likewise for C#Cc1cccc2nc([C@H](C)Nc3ncnc(N)c3-c3ncn(C)n3)n(C3CC3)c(=O)c12 ?
Solution: 1.54

Exercise: Same read-out for Cc1nnc(-c2c(N)ncnc2N[C@@H](C)c2nc3cccc(C#CC(C)O)c3c(=O)n2-c2ccccc2)o1 (stereo partly shown) ?
Solution: 2.21

Exercise: What do you have for Cc1nc(-c2c(N)ncnc2N[C@@H](C)c2nc3cccc(C#CC(C)(C)O)c3c(=O)n2-c2ccccc2)no1 ?
Solution: 2.72

Exercise: Input CC[C@H](Nc1ncnc(N)c1-c1nnc(C)o1)c1nc2cccc(C#CCO)c2c(=O)n1-c1ccccc1
Solution: 1.34

Exercise: And CC#Cc1cccc2nc([C@H](C)Nc3ncnc(N)c3-c3nnc(C)o3)n(C3CC3)c(=O)c12 ?
Solution: 1.77

Exercise: Can you check C#Cc1cccc2nc([C@H](C)Nc3ncnc(N)c3-c3nc(C)no3)n(C3CC3)c(=O)c12 next?
Solution: 1.35
